Test system: MB453 cells
Assay summary: Inhibition of cell proliferation, CyQUANT Direct, MB453
Format: cell-based, human
Condition set: Homo sapiens; MB453 triple negative breast cancer cells, 72-hour; read-out: MB 453 proliferation calculated IC50
Observable: IC50

molecule="N#Cc1ccc2c(-c3nc(N[C@H]4CNC[C@@H]4c4ccc(Cl)cc4)ncc3C(F)(F)F)c[nH]c2c1 (relative stereo)" observable=IC50 val="> 2000 nM"
molecule=N#Cc1ccc2c(-c3nc(N[C@@H]4CC[C@H]4N4CCOCC4)ncc3C(F)(F)F)c[nH]c2c1 observable=IC50 val="> 2000 nM"
molecule=Cc1noc(C)c1-c1ccc2c(-c3nc(N[C@@H]4C[C@@H]5CC[C@H]4N5)ncc3C(F)(F)F)c[nH]c2c1 observable=IC50 val="< 100 nM"
molecule=N#Cc1ccc2c(-c3nc(N[C@H]4CCC[C@@H]4N)ncc3C(F)(F)F)c[nH]c2c1 observable=IC50 val="100 to 500 nM"
molecule="N#Cc1ccc2c(-c3nc(N[C@@H]4CNC[C@H]4F)ncc3C(F)(F)F)c[nH]c2c1 (relative stereo)" observable=IC50 val="> 2000 nM"
molecule=Cc1noc(C)c1-c1ccc2c(-c3nc(N[C@H]4CCC[C@@H]4N4CCCC4)ncc3C(F)(F)F)c[nH]c2c1 observable=IC50 val="< 100 nM"
molecule="Cc1noc(C)c1-c1ccc2c(-c3nc(NC4CCCC4N)ncc3C(F)(F)F)c[nH]c2n1 (stereo not drawn)" observable=IC50 val="< 100 nM"
molecule=Cc1noc(C)c1-c1ccc2c(-c3nc(N[C@H]4CCC[C@@H]4N4CC(F)(F)C4)ncc3C(F)(F)F)c[nH]c2n1 observable=IC50 val="> 2000 nM"
molecule=Cc1noc(C)c1-c1ccc2c(-c3nc(N[C@H]4CCC[C@H]4N4CC(F)(F)C4)ncc3C(F)(F)F)c[nH]c2n1 observable=IC50 val="> 2000 nM"
molecule=CN(C)[C@H]1CC[C@@H]1Nc1ncc(C(F)(F)F)c(-c2c[nH]c3cc(C#N)ccc23)n1 observable=IC50 val="100 to 500 nM"
molecule=Cc1nsc(-c2ccc3c(-c4nc(N[C@H]5CCC[C@@H]5N)ncc4C(F)(F)F)c[nH]c3n2)n1 observable=IC50 val="500 to 2000 nM"
molecule=CCN[C@H]1CC[C@@H]1Nc1ncc(C(F)(F)F)c(-c2c[nH]c3nc(-c4c(C)noc4C)ccc23)n1 observable=IC50 val="< 100 nM"
molecule=Cc1noc(C)c1-c1ccc2c(-c3nc(N[C@H]4CCC[C@H]4N4CC(F)C4)ncc3C(F)(F)F)c[nH]c2n1 observable=IC50 val="500 to 2000 nM"
molecule="Cc1noc(C)c1-c1ccc2c(-c3nc(NC4CC[C@@H]4N4CCCC4)ncc3C(F)(F)F)c[nH]c2n1 (stereo in doubt)" observable=IC50 val="< 100 nM"
molecule=Cc1noc(C)c1-c1ccc2c(-c3nc(N[C@H]4CCC[C@@H]4N)ncc3C(F)(F)F)c[nH]c2c1 observable=IC50 val="< 100 nM"
